molecular target: Tyrosine-protein phosphatase non-receptor type 11 (Homo sapiens); experiment: Inhibition of recombinant human SHP2 expressed in Escherichia coli […] preincubated for 15 mins followed by substrate addition and measured after 60 mins
Sequence (Q06124 whole entry): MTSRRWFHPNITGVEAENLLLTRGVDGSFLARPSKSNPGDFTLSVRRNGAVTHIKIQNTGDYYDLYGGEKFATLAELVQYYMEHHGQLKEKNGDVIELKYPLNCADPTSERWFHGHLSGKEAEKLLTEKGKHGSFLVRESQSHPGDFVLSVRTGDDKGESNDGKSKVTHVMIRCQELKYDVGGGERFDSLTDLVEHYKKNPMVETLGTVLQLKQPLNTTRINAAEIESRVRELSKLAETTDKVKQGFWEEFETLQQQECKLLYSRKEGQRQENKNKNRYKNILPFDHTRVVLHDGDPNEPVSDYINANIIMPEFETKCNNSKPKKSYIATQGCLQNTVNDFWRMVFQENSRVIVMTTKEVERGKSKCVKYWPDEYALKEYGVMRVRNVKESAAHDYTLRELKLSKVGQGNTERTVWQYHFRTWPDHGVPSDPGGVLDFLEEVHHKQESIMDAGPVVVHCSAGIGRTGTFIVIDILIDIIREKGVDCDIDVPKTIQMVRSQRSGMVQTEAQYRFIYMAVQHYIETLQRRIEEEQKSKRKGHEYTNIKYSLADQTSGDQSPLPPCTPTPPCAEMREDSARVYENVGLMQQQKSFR
Readout label: IC50

# input Please indicate IC50 recorded for C[C@@H]1C(=O)N/C(=C\c2ccccc2)c2nc3c(O)cccc3c(=O)n21
# output 14 to 87 µM

# input Please indicate IC50 recorded for C[C@@H]1C(=O)N[C@](O)(Cc2ccccc2)c2nc3c(c(=O)n21)C=CC=CO3
# output 14 to 87 µM

# input Please indicate IC50 recorded for CC[C@@H](C)C1=C2N=C3OC=CC=C[C@]3(OC)C(=O)N2[C@@H](Cc2ccccc2)C(=O)N1
# output 14 to 87 µM
